Where do the numbers come from? From patent US20240409629A1.

TESTED_TARGET: human CLDN18.2 (human)
ASSAY_NOTES: cell-based or functional assay
REPORTED_PROPERTY: ADCC EC50, Jurkat-CD16a v158-NFAT-luciferase effector cells, KATOIII target cells (nM)
Report the figure in nM without appending any unit label.

The examples below pair each entry with its known result.
- BINDER: "IMAB362 (antibody, human IgG1, kappa, V domains shown, Positive control, prepared in-house; also called Claudiximab; TMAB362 [sic]) VH: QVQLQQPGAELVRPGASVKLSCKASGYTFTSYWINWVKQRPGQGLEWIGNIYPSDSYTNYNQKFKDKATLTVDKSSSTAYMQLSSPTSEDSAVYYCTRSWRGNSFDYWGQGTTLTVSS VL: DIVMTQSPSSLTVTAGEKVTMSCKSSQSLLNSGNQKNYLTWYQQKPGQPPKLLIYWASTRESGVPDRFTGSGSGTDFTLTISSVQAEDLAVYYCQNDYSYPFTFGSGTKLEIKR"
  NUMERIC_VALUE: 1.52
- BINDER: "chimeric antibody xi22F12 (antibody, human IgG1, kappa, V domains shown, Mouse variable regions on human IgG1/kappa; defucosylated, expressed in FUT8-knockout CHO-S cells; also called chimeric 22F12) VH: QVQLKESGPGLVAPSQSLSITCTVSGFSLTSYGVYWVRQPPGKGLEWLGVIWAGGSTNYNSALMSRLSINKDNSKSQVFLKMNSLQTDDTAMYYCARDRGRLLSMDYWGQGTSVTVSS VL: DIVMTQSPSSLSVSAGEKVTMSCRSSQSLLNSGNQKNYLAWYQQKPGQPPKLLIYGASTRESGVPDRFTGSGSGTDFTLTIGSVQAEDLAVYYCQNVHFFPFTFGSGTKLEIKR"
  NUMERIC_VALUE: 0.02
- BINDER: "chimeric antibody xi28G3 (antibody, human IgG1, kappa, V domains shown, Mouse variable regions on human IgG1/kappa; defucosylated, expressed in FUT8-knockout CHO-S cells; also called chimeric 28G3) VH: EIQLQQTGPELVKPGASVTISCKTSGYSFTDYLMLWVKQSHGKSLEWIGNINPYYGRTTYNLKFKGKATLTVDRSSSTAYMQLNSLTSEDSAVYYCARDGYSLRNAMDYWGQGTSVTVSS VL: DIVMTQSPYSLSVSTGEKVTMSCKSSQSLFNSGNQKNYLAWYQQKPGQPPKLLIYGASTRESGVPDRFTGSGSGTDFTLTISSVQAEDLALYYCQNAHSYPYTFGGGTKLEIKR"
  NUMERIC_VALUE: 0.03
- BINDER: "chimeric antibody xi40F6 (antibody, human IgG1, kappa, V domains shown, Mouse variable regions on human IgG1/kappa; defucosylated, expressed in FUT8-knockout CHO-S cells; also called chimeric 40F6) VH: QVQLKESGPGLVAPSQSLSITCTVSGFSLTSYGVYWVRQSPGKGLEWLGVVWAGGNTNYNSALMSRLSISKDNSKSQVFLKMNSLQTDDTAMYYCARDRGRLLAMDYWGQGTSVTVSS VL: DVVMTQSPSSLSVSAGEKVTMSCKSSQSLLNSGNQKNYLAWYQQKPGQPPKLLIYGASTRESGVPDRFTGSGSGTDFTLTISSVQAEDLAVYYCQNDHFFPFTFGSGTKLEIKR"
  NUMERIC_VALUE: 0.03

Input line: Param item = chimeric antibody xi34G6 (antibody, human IgG1, kappa, V domains shown, Mouse variable regions on human IgG1/kappa; defucosylated, expressed in FUT8-knockout CHO-S cells; also called chimeric 34G6) VH: QVQLKESGPDLVAPSQSLSITCTVSGFSLTSYGVHWVRQPPGKGLEWLVVIWSDGSTTYNSALKSRLSISKDNSKSQVFLKMNSLQTDDTAIYYCARHAYYGNSFDYWGQGTTLTVSS VL: DIVMTQSPSSLTVTAGEKVTMSCKSSQSLLNSGNQKSYLTWYQQKPGQPPKLLIYWASTRESGVPDRFTGSGSGTDFTLTISSVQAEDLAVYYCQNVYIFPLTFGAGTKLELKR ; retrieve measured ADCC EC50, Jurkat-CD16a v158-NFAT-luciferase effector cells, KATOIII target cells.
Output line: 0.064
